system: HCV replicons (wild type NS3-NS5B regions of HCV type 1b) in Huh-7 luc/neo cells; experiment: Replicon assay (Huh-Luc cells, luciferase readout); format: cell-based; conditions: Hepatitis C virus, Huh-7, 72 h, incubation of three days, luciferase activity
// values below are reported EC50
observation_type: EC50

INSERT INTO assay_data (compound, observed) VALUES
  ('COc1cc(O[C@@H]2C[C@H]3C(=O)N[C@]4(C(=O)NS(=O)(=O)c5cccs5)C[C@H]4/C=C\CCCCN(C)C(=O)[C@@H]3C2)nc(-c2ccccc2)n1', '1000 to 10000 nM'),
  ('COc1nc(O[C@@H]2C[C@H]3C(=O)N[C@]4(C(=O)NS(=O)(=O)C5(C)CC5)C[C@H]4/C=C\CCCCN(C)C(=O)[C@@H]3C2)cc(-c2ccccc2)n1', '200 to 990 nM'),
  ('COc1nc(OC2CC3C(=O)NC4(C(=O)NS(=O)(=O)C5CC5)CC4C=CCCCCN(C)C(=O)C3C2)cc(C(C)(C)C)n1 (stereo not shown)', '1000 to 10000 nM'),
  ('COc1ccc(-c2cc(OC3CC4C(=O)NC5(C(=O)NS(=O)(=O)C6CC6)CC5C=CCCCCN(C)C(=O)C4C3)nc(OC)n2)cc1 (stereo not shown)', '200 to 990 nM');
